molecular target: BCL6 (Homo sapiens (Human)); test: BCL6 TR-FRET assay (BCL6-Avitag-Biotin / BCoR-Cy5 peptide); type: binding; conditions: class symbols A-D; read-out: IC50 (nM)***
MEASURE NAME: IC50

- MOLECULE: "CC(=O)COc1cc2cc(Nc3nc(N4CCC(CN5CC6(C5)CN(c5ccc7c(c5)C(=O)N(C5CCC(=O)NC5=O)C7=O)C6)CC4)ncc3Cl)ccc2n(C)c1=O (stereo not drawn) [compound 165]"
  VAL: "10 to 50 nM"
- MOLECULE: "CNC(=O)COc1cc2cc(Nc3nc(N4CCC(CN5CCN(c6ccc7c(c6)CN(C6CCC(=O)NC6=O)C7=O)CC5)CC4)ncc3Cl)ccc2n(C)c1=O (stereo not drawn) [compound 151]"
  VAL: "< 10 nM"

Observed IC50 on BCL6 (Homo sapiens (Human)), entry CC(=O)COc1cc2cc(Nc3nc(N4CCC(CN(C)CC#Cc5ccc6c(c5)C(=O)N(C5CCC(=O)NC5=O)C6=O)CC4)ncc3Cl)ccc2n(C)c1=O (stereo not drawn) [compound 176] , equals ≥ 100 nM

Where these numbers come from: patent US12310975B2
